Data origin, for the record: patent US8710233B2

tested.system: VR1/TRPV1 receptor (Homo sapiens)
Sequence (Q8NER1 whole entry): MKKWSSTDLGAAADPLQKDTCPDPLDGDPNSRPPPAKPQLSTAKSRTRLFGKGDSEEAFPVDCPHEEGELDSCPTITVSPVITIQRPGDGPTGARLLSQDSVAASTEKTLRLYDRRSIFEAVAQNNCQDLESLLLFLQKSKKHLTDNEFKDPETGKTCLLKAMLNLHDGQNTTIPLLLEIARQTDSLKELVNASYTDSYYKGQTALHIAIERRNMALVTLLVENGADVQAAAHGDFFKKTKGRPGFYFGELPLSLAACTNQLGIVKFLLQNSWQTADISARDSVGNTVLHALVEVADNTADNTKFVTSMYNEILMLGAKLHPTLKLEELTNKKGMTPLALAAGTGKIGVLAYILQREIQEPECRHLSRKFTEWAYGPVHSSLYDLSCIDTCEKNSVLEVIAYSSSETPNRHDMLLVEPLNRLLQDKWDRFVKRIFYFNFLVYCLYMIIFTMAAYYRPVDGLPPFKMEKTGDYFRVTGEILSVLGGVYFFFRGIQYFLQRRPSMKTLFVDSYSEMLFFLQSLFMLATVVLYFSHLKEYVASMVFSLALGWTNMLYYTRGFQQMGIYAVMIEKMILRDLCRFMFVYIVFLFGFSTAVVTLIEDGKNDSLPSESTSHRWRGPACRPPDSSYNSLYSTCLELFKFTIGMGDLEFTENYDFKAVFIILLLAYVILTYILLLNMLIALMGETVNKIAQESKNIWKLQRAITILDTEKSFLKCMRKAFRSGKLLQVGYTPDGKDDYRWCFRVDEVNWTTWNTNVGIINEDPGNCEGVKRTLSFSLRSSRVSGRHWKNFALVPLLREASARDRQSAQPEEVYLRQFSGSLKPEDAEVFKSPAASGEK
assay.comment: IC50 (human) after pH stimulus
Format: cell-based
run.parameters: table 4
Measured IC50 of individual entries

Record excerpt, results attached:
Cc1ccc(CCc2nc(C(F)(F)F)ccc2CNC(=O)C(C)c2ccc(NS(C)(=O)=O)c(F)c2)cc1 (stereo not shown) = 15.9 nM
CCCCCCOc1nc(C(F)(F)Cl)ccc1CNC(=O)C(C)c1ccc(NS(C)(=O)=O)c(F)c1 (stereo not shown) = 22.8 nM
Cc1cc(C(C)C(=O)NCc2ccc(C(F)(F)F)nc2OCc2ccccc2)ccc1NS(C)(=O)=O (stereo not shown) = 148 nM

Enquiry: Which IC50 is listed for "CC(C)COc1nc(C(F)(F)F)ccc1CNC(=O)[C@@H](C)c1ccc(NS(C)(=O)=O)c(F)c1" ?
Return: 30 nM

---

tested.system: vanilloid receptor (VR1) (Homo sapiens)
Construct: expressed in transfected cells; host or cells: CHO K1 cells (ECACC), stably transfected
assay.comment: FLIPR Ca2+ influx assay on CHO K1 cells transfected with the VR1 gene (pharmacological method II)
Format: cell-based
run.parameters: table 4; capsaicin; read-out: Ki (human) Cap.
quantity.name: pKi
The scale used: pKi is minus the common logarithm of the concentration in molar units.

Record excerpt, results attached:
CC(C(=O)NCc1ccc(C(F)(F)F)nc1OCC1CCC1)c1ccc(NS(C)(=O)=O)c(F)c1 (stereo not shown) = 9.52
CC(C(=O)NCc1ccc(C(F)(F)F)nc1OC1CCC(C(F)(F)F)CC1)c1ccc(NS(C)(=O)=O)c(F)c1 (stereo not shown) [Example 339] = 9.52
CCCCOc1cc(C(F)(F)F)ccc1CNC(=O)C(C)c1ccc(NS(C)(=O)=O)c(F)c1 (stereo not shown) = 9.00

Enquiry: Which pKi is listed for CC(C(=O)NCc1ccc(C(F)(F)F)nc1N1CC=C(c2ccc(F)cc2)CC1)c1ccc(NS(C)(=O)=O)c(F)c1 (stereo not shown) ?
Return: 8.62

---

Measured pIC50 of individual entries
tested.system: VR1/TRPV1 receptor (Homo sapiens)
assay.comment: IC50 (human) after pH stimulus
Format: cell-based
run.parameters: table 4
The scale used: pIC50 is minus the common logarithm of the concentration in molar units.

Record excerpt, results attached:
CC(C(=O)NCc1ccc(C(F)(F)F)nc1-c1ccc(F)c(Cl)c1)c1ccc(NS(C)(=O)=O)c(F)c1 (stereo not shown) [Example 118] = 8.12
CC(C(=O)NCc1ccc(C(F)(F)Cl)nc1OCc1ccccc1)c1ccc(NS(C)(=O)=O)c(F)c1 (stereo not shown) [Example 169] = 7.39
CCCCN(CCCC)c1nc(C(F)(F)F)ccc1CNC(=O)C(C)c1ccc(NS(C)(=O)=O)c(F)c1 (stereo not shown) [Example 183] = 7.98
CCC/C=C\c1nc(C(F)(F)F)ccc1CNC(=O)C(C)c1ccc(NS(C)(=O)=O)c(F)c1 (stereo not shown) [Example 300] = 7.23
Cc1cccc(N2CCN(c3nc(C(F)(F)F)ccc3CNC(=O)C(C)c3ccc(NS(C)(=O)=O)c(F)c3)CC2)c1 (stereo not shown) [Example 220] = 7.41
CCS(=O)(=O)Nc1ccc(C(C)C(=O)NCc2ccc(C(F)(F)F)nc2N2CCC(C)CC2)cc1F (stereo not shown) [Example 287] = 6.72

Kindly consider the entry below.
Enquiry: Which pIC50 is listed for CC(C(=O)NCc1ccc(C(F)(F)Cl)nc1OCc1ccccn1)c1ccc(NS(C)(=O)=O)c(F)c1 (stereo not shown) [Example 182] ?
Return: 6.20
